# assayed-system: Phosphatidylinositol 4,5-bisphosphate 3-kinase catalytic subunit gamma isoform (Homo sapiens)
# Sequence (P48736 whole entry, canonical isoform): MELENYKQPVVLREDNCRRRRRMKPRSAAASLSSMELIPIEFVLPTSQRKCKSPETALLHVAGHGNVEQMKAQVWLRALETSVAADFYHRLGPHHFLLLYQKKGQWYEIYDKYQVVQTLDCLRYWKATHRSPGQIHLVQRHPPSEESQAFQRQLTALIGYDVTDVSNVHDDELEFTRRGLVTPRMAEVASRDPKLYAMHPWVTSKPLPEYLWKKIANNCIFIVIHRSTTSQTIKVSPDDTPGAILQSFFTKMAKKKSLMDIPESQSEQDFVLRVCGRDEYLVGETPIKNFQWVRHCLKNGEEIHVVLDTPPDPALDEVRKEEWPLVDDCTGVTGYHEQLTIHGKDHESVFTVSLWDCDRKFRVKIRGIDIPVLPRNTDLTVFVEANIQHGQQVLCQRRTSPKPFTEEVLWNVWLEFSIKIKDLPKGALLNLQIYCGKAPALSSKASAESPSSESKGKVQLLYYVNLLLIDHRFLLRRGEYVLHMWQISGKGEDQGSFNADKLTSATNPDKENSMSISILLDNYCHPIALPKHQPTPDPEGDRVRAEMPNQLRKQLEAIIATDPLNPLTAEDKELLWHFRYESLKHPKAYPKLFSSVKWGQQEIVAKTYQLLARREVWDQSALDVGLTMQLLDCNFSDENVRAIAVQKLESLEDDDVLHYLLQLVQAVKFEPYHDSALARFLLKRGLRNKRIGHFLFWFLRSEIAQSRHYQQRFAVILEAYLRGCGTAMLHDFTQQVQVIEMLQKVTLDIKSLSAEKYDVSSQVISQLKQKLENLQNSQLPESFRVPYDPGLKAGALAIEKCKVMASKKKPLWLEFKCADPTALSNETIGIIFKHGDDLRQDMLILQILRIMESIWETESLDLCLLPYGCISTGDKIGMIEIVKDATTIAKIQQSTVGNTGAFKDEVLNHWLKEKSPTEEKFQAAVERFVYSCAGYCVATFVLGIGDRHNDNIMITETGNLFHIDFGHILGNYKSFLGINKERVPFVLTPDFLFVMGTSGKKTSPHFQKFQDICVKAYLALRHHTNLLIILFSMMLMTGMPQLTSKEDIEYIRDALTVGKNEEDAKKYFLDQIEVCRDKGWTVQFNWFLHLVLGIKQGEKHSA
pIC50: −log10 of the molar value.
Label MET for high-side pIC50 (at or above 6) and NOT MET for low-side pIC50 (below it).

molecule	group-label
COc1ncc(-c2ccc3nc(N)n(-c4ccccc4)c(=O)c3c2)cc1NS(=O)(=O)c1ccccc1C	MET
COc1ncc(-c2ccc3nc(N)n(-c4ccccc4)c(=O)c3c2)cc1N(C)S(=O)(=O)c1ccc(F)cc1F	NOT MET
COc1ncc(-c2ccc3nc(N)n(-c4ccccc4C(F)(F)F)c(=O)c3c2)cc1S(=O)(=O)Nc1ccc(F)cc1F (atropisomer aR)	NOT MET
COc1ncc(-c2ccc3nc(N)n(-c4ccccc4)c(=O)c3c2)cc1NS(=O)(=O)c1ccc(F)cc1F	MET
COc1ncc(-c2ccc3nc(N)n(-c4ccc(C(F)(F)F)cc4)c(=O)c3c2)cc1S(=O)(=O)Nc1ccc(F)cc1F	MET
COc1ncc(-c2ccc3nc(N)n(-c4ccccc4)c(=O)c3c2)cc1NS(=O)(=O)c1ccc(C#N)cc1	MET
COc1ncc(-c2ccc3nc(N)n(-c4ccccc4)c(=O)c3c2)cc1NS(=O)(=O)C(C)C	MET
